# target.or.system: ACE (from rabbit lung) (Oryctolagus cuniculus)
# Construct: ACE (from rabbit lung); purchased Sigma Chemicals Co. (St. Louis, MO, USA); host or cells: rabbit lung tissue
# Sequence (P12822 34-1310): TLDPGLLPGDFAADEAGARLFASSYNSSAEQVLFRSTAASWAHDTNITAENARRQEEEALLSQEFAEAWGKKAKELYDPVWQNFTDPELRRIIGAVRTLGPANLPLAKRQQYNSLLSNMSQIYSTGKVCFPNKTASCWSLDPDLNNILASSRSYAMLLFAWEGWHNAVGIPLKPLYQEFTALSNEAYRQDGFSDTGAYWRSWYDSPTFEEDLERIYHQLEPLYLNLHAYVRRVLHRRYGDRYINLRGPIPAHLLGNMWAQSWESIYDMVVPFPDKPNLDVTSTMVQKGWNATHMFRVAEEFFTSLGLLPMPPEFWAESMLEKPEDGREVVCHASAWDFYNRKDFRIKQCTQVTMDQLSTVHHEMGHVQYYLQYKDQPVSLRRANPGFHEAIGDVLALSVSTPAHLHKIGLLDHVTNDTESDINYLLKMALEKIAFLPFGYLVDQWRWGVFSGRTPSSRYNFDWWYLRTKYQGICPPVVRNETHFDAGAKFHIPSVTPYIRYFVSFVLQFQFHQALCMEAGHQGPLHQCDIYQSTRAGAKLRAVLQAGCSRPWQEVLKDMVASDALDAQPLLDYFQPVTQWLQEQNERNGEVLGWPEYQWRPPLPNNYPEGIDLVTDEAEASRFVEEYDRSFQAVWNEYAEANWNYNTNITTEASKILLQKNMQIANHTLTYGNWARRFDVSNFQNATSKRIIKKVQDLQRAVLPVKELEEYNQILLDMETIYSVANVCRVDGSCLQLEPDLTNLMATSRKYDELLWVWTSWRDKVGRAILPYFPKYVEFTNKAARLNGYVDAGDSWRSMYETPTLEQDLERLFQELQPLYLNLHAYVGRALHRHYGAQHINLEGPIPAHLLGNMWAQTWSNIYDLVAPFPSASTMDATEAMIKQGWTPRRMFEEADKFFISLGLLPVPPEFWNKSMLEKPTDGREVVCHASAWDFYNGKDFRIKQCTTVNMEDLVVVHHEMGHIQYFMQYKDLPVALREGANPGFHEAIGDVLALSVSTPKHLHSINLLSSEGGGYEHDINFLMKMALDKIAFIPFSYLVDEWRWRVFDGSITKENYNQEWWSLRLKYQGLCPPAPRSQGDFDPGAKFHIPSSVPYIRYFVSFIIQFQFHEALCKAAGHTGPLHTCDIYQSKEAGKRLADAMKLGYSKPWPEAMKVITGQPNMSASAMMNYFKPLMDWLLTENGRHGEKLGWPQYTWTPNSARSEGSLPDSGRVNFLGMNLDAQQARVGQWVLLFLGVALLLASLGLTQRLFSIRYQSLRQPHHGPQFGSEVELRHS
# test.details: ACE inhibitory activity (HHL substrate, HPLC of hippuric acid)
# Format: biochemical
# experimental.setup: synthetic peptide, 37.5 °C 1 h, HPLC 228 nm, read-out: IC50 value, ACE inhibition
Ends that are not written are not given here.
assay.endpoint: pIC50
Expect pIC50 as a plain number equal to -log10 of the molar concentration.

Record request: pIC50 value, item WPMGF [WPMGF, Trp-Pro-Met-Gly-Phe]
3.10
